Source of measurements: patent US20170101472A1

Reported t1/2 is given for each of the following binders.
Target: T1, recombinant human LAG3 expressed with a C-terminal myc-myc-hexahistidine tag (human, UniProt P18627 29-450)
T1 construct: also called hLAG3-mmh; hLAG3.mmh
T1 sequence (P18627 other isoform, or with tags, fused parts or gaps limits assumed): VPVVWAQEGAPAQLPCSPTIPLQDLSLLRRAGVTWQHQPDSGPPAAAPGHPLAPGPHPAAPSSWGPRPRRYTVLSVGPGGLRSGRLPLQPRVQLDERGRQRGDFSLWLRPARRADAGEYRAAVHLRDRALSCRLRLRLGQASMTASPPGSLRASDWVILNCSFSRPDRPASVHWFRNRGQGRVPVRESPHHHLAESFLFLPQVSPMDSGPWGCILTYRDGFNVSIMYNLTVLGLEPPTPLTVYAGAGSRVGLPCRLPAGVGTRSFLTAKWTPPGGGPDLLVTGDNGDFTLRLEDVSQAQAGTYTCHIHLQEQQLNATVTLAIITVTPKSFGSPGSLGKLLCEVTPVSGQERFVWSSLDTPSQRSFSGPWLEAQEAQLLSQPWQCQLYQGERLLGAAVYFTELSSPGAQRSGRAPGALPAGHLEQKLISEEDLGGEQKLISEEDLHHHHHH
Assay: SPR, mAb captured, 37 C
MEASURE: t1/2

{"columns": ["BINDER", "VALUE_REPORTED"],
 "data": [
  ["H4H15479P (antibody, human IgG4, V domains shown) VH: QVQLQQWGAGLLNPSETLSLTCAVYGGAFSDYYWNWIRQPPGKGLEWIGEINHRGSTNYNPSLKSRVTISVDTSKNQFSLRMSSVTAADAAVYYCARGEDYDIWNGYYQEKWGQGTLVTVSS VL: EIVLTQSPATLSLSPGERATLSCRASQSISTYLAWYQQKPGQAPRLLIYDASKRATGIPARFSGSGSGTDFTLTISSLEPEDFVVYYCHQRSNWPLTFGGGTKVEIK", "4.72 h"],
  ["H4H15483P (antibody, human IgG4, V domains shown, H4H = human IgG4 Fc with S108P hinge mutation) VH: QVQLQQWGAGLLPPSETLSLICAVYGGSFSGYYWSWIRQPPGKGLEWIGEINHRGSTNYNPSLKSRATISVDTSKNQFSLKLSSVTAADTAVYYCSRGEDYYDSSGYSYYFDYWGQGTLVTVSS VL: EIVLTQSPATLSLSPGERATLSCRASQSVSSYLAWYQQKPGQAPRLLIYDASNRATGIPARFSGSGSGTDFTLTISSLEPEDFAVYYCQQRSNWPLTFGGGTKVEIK", "0.173 h"],
  ["H4H17819P (antibody, human IgG4, V domains shown, H4H = human IgG4 Fc with S108P hinge mutation) VH: EVQLVESGGGLVQPGGSLRLSCVASGFTFSLYAMTWVRQVPGKGLEWVSTISGSGGGTYYTDSVKGRFTISRDNSKNTLYLQMNSLRADDTAVFYCTKESTTGTYSYFYGMDVWGQGTTVTVSS VL: DIQMTQSPSSLSASVGDRVTITCRASQTISSYLNWYQQKPGKAPKLLIYAASSLQSGVPSRFSGSGSGTDFTLTLSGLQPEDFATYYCQQSYSTPLTFGGGTKVEIK", "0.22 h"],
  ["H4sH15479P (antibody, V domains shown) VH: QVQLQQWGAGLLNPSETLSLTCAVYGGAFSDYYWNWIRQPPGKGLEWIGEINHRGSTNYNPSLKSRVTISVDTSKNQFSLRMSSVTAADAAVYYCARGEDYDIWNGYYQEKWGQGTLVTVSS VL: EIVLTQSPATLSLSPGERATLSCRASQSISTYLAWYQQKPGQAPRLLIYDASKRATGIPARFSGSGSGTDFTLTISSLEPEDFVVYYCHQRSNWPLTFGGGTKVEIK", "4.54 h"]
]}
